Target: UniProtKB P28223
Test: FLIPR Ca2+ flux functional assay at 5-HT2A (HEK293)
Cut-off 0.01 µM on EC50: below means rule met, at or above means rule not met.

| Compound | Class assignment |
| --- | --- |
| COc1cc(CCCCF)c(OC)nc1CCN | rule not met |

# strict comparison: is reported EC50 < 0.01 µM? input = CCCCCc1nc(OC)c(CC(N)CC)nc1OC (centres unmarked) rule not met

# strict comparison: is reported EC50 < 0.01 µM? input = CCCCCCc1cc(OC)c(CC(C)N)nc1OC (centres unmarked) rule not met

----------
Below: a set of entries, each annotated with reported pEC50.
Molecular target: 5-HT2B receptor (Homo sapiens (Human), UniProt P41595)
Sequence (P41595 whole entry, looked up): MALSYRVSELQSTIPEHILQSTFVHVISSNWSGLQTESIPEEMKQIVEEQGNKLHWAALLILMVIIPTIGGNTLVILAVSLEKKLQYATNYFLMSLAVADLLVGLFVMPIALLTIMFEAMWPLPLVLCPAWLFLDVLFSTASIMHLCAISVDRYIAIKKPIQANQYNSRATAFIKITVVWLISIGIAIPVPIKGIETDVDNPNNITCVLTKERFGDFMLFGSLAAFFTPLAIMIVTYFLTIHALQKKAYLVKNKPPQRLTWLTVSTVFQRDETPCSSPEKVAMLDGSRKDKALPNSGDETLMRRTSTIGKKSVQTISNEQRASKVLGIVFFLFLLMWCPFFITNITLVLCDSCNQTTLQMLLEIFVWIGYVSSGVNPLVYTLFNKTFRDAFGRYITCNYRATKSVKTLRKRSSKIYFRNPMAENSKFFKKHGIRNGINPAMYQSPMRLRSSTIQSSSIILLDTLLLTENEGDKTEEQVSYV
Test: FLIPR Ca2+ flux functional assay at 5-HT2B (HEK293)
// pEC50: -log10(molar conc.)

Example entries and their recorded answers appear below.
| Compound | Readout value |
| --- | --- |
| COc1cc(C)c(OC)nc1CC(C)N (stereo not drawn) [Compound 5] | 6.24 |
| COc1cc(CCCCCC(F)(F)F)c(OC)nc1CCN [Compound 30] | 5.78 |
| CCSc1cc(OC)c(CC(C)N)nc1OC (stereo not drawn) [Compound 23] | 7.35 |
| COc1cc(C2CC2)c(OC)nc1CC(C)N (stereo not drawn) [Compound 27] | 6.61 |
| CCCc1cc(OC)c(CCN)nc1OC [Compound 36] | 6.74 |

Lab entry: 5-HT2B receptor (Homo sapiens (Human), UniProt P41595) assay, compound COc1cc(C)c(OC)nc1CCN [Compound 8] , pEC50 = 6.00

Lab entry: 5-HT2B receptor (Homo sapiens (Human), UniProt P41595) assay, compound CCc1cc(OC)c(CC(C)N)nc1OC (stereo not drawn) [Compound 20] , pEC50 = 6.53

Lab entry: 5-HT2B receptor (Homo sapiens (Human), UniProt P41595) assay, compound COc1cc(Cl)c(OC)nc1CCN [Compound 16] , pEC50 = 5.86

Lab entry: 5-HT2B receptor (Homo sapiens (Human), UniProt P41595) assay, compound CCc1cc(OC)c(CCN)nc1OC [Compound 19] , pEC50 = 6.66

Lab entry: 5-HT2B receptor (Homo sapiens (Human), UniProt P41595) assay, compound COc1cc(Cl)c(OC)nc1CC(C)N (stereo not drawn) [Compound 17] , pEC50 = 6.27

Lab entry: 5-HT2B receptor (Homo sapiens (Human), UniProt P41595) assay, compound COc1cc(Br)c(OC)nc1CC(C)N (stereo not drawn) [Compound 6] , pEC50 = 6.77

Lab entry: 5-HT2B receptor (Homo sapiens (Human), UniProt P41595) assay, compound COc1cc(Br)c(OC)nc1CCN [Compound 9] , pEC50 = 6.12

----------
Target: 5-HT1A receptor (Homo sapiens (Human), UniProt P08908)
Assay: FLIPR Ca2+ flux functional assay at 5-HT1A (CHO cells)
Details: Ca2+ flux, CHO cells, at max concentration
Measured attribute: 5-HT1A % Act @ Max Conc.

Example entries and their recorded answers appear below.
| Compound | 5-HT1A % Act @ Max Conc. |
| --- | --- |
| CCCCCCc1cc(OC)c(CC(C)N)cc1OC (centres unmarked) [Compound 42, reference compound] | 30.4% |
| COc1cc(C2CC2)c(OC)nc1CCN [Compound 26] | 2.22% |
| CCCc1cc(OC)c(CC(N)CC)nc1OC (centres unmarked) [Compound 37] | 42.24% |
| COc1cc(C(F)(F)F)c(OC)cc1CCN [Compound 2C-TFM, 2C-TFM, reference compound] | −0.647% |

Note: attention shifts to another entry.
The measured 5-HT1A % Act @ Max Conc. associated with CCCCCCc1cc(OC)c(CC(C)N)nc1OC (centres unmarked) [Compound 38] reads 123.88%
